# Test system: CXCR4-expressing Chem_1 cells
# assay info: Determination of internalization, dual tracer with 125I-Fc-131
# Assay type: cell-based
# assay conditions: 90 min; of total cellular activity
Non-standard residues stand in square brackets, D forms with d. Residues, ends and D or L forms follow the SMILES beside them. Groups on a side chain read outwards from the residue. *: point of attachment. X9 = NCCNCC(CNCCN)C(=O)NC[C@@H](NC(=O)CC[C@@H](NC(=O)N[C@H](CCC(=O)O)C(=O)O)C(=O)O)C(=O)*; 2Nal = N[C@@H](Cc1ccc2ccccc2c1)C(=O)O; dNMeOrn = CN[C@H](CCCN)C(=O)O; 4Abz = Nc1ccc(C(=O)O)cc1; dDap = NC[C@@H](N)C(=O)O; Ahx = NCCCCCC(=O)O
Entries annotated with measured Internalized [%]
Please reply with the bare figure in % and do not write the unit itself.

C[C@@H](NC(=O)[C@@H](CCCNC(=N)N)NC(=O)[C@@H](CN)NC(=O)CCCCCNC(=O)[C@@H](CNC(=O)C(CNCCN)CNCCN)NC(=O)CC[C@@H](NC(=O)N[C@H](CCC(=O)O)C(=O)O)C(=O)O)C(=O)Nc1ccc(C(=O)NCCC[C@@H]2C(=O)N[C@@H](CCCNC(=N)N)C(=O)N[C@@H](Cc3ccc4ccccc4c3)C(=O)NCC(=O)N[C@H](Cc3ccc(O)cc3)C(=O)N2C)cc1 [Tc-CXCR4-16] (cyclo([2Nal]G[dY][dNMeOrn]([4Abz-dA-dR-dDap-Ahx-X9])R))
19.8

Proceed to the following item.
QUERY: // fetch CXCR4-expressing Chem_1 cells Internalized [%] for C[C@@H](NC(=O)[C@@H](CCCNC(=N)N)NC(=O)[C@@H](CN)NC(=O)CCCCCNC(=O)[C@@H](CNC(=O)CN1CCN(CC(=O)O)CCN(CC(=O)O)CCN(CC(=O)O)CC1)NC(=O)CCCCC[N+]1=C(/C=C/C=C/C=C2/N(C)c3ccc(S(=O)(=O)O)cc3C2(C)C)C(C)(C)c2cc(S(=O)(=O)[O-])ccc21)C(=O)Nc1ccc(C(=O)NCCC[C@@H]2C(=O)N[C@@H](CCCNC(=N)N)C(=O)N[C@@H](Cc3ccc4ccccc4c3)C(=O)NCC(=O)N[C@H](Cc3ccc(O)cc3)C(=O)N2C)cc1 [[^natLu]CXCR4-OI-3, metal not drawn]
RESULT: 25.2
